This collection of values is drawn from patent US8134015B2.

Molecular target: rat NaPi-2b (Rattus norvegicus, UniProt Q9JJ09)
Assay: Sodium-dependent phosphate uptake of Xenopus oocytes which expressed NaPi-2b (32P)
Conditions: Xenopus oocytes expressing rat NaPi-2b, 32P radioactive phosphorus; read-out: IC50 (phosphate uptake inhibitory activity)
pIC50: −log10 of the molar value.
endpoint name: pIC50

COc1ccc(C(=O)Nc2ccccc2C(=O)N/N=C/c2cccc(C)c2)cc1OC ... 5.55

P = CCN(CC)CCN(C)Cc1ccc(C(=O)Nc2ccc(Br)cc2C(=O)N/N=C/c2cccc(F)c2)cc1
Q = O=C(Nc1ccc(Br)cc1C(=O)N/N=C/c1ccc(F)cc1)c1cccc(CSc2ccncc2)c1
Identify the entry with the larger pIC50. Options: P and Q Reply with the label of the item you choose.
Q

----------
Target: UniProt:Q9JJ09
Sequence (Q9JJ09 1-695): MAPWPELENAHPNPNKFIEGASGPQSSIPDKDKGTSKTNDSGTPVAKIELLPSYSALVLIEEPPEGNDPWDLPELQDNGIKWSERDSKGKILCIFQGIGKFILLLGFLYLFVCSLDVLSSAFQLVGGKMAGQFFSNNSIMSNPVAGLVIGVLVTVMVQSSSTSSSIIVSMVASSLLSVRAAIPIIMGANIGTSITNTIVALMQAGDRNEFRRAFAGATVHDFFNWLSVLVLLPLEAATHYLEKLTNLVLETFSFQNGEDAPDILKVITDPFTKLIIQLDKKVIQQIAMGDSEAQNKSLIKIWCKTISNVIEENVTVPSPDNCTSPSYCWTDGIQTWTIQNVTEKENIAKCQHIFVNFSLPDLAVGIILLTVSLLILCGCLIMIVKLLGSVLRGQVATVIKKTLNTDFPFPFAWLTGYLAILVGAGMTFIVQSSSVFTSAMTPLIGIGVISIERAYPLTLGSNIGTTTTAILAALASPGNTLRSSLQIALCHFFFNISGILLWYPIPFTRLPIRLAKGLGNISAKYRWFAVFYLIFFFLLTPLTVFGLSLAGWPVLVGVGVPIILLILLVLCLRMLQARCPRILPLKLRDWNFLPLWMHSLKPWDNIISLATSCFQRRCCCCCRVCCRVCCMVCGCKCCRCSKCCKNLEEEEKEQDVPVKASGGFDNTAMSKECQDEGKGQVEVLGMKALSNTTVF
Assay: Sodium-dependent phosphate uptake of Xenopus oocytes which expressed NaPi-2b (32P)
Conditions: Xenopus oocytes expressing rat NaPi-2b, 32P radioactive phosphorus; read-out: IC50 (phosphate uptake inhibitory activity)
endpoint name: IC50 (nM)

CCN(CC)CCN(C)Cc1cccc(C(=O)Nc2sccc2C(=O)N/N=C/c2ccc(C)c(C)c2)c1 [Compound 664] ... 15100

P = O=C(Nc1ccc(Cl)cc1C(=O)N/N=C/c1cccc(F)c1)c1cccc(CN2CCC(N3CCCCC3)CC2)c1 [Compound 368]
Q = Cc1ccc(/C=N/NC(=O)c2cc(Br)ccc2NC(=O)c2ccc(CN3CCC(O)CC3)cc2)cc1 [Compound 325]
Of P and Q , whose reported IC50 is numerically smaller? Indicate your choice by writing its label.
P

----------
Target: rat NaPi-2b (Rattus norvegicus)
Sequence (Q9JJ09 1-695): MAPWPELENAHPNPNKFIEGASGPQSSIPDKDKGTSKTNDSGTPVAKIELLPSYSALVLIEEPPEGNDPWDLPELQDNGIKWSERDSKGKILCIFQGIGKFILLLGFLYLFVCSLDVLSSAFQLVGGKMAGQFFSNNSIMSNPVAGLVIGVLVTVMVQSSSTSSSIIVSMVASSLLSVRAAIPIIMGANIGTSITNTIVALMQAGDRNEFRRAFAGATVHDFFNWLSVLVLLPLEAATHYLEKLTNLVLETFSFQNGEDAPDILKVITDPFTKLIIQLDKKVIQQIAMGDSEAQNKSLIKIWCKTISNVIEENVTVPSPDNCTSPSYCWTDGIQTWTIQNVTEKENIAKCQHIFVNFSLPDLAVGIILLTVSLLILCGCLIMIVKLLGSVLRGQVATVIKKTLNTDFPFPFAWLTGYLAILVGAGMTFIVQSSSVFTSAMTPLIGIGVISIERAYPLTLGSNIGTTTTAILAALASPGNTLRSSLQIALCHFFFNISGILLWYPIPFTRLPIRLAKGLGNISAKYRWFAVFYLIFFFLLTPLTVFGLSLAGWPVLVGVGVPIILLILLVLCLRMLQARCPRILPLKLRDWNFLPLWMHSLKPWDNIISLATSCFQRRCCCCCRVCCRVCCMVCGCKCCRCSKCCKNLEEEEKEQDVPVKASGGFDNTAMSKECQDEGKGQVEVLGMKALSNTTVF
Assay: Sodium-dependent phosphate uptake of Xenopus oocytes which expressed NaPi-2b (32P)
Details: Xenopus oocytes expressing rat NaPi-2b, 32P radioactive phosphorus; read-out: IC50 (phosphate uptake inhibitory activity)
endpoint name: IC50 (µM)

As a guide, the following entries are already answered.
Cc1ccc(/C=N/NC(=O)c2cc(Br)ccc2NC(=O)c2ccc(CN3CCN(CCO)CC3)cc2)cc1C ... 4.71
CCN(CC)CCN(C)Cc1cccc(C(=O)Nc2sc3c(c2C(=O)N/N=C/c2ccc(OCCO)cc2)CCCC3)c1 ... 2.58
O=C(Nc1ccccc1C(=O)N/N=C/c1cccc(F)c1)c1ccncc1 ... 7.82

a = O=C(Nc1ccc(Br)cc1C(=O)N/N=C/c1ccc(F)cc1)c1ccc(CNCCN2CCOCC2)cc1
b = Cc1cccc(/C=N/NC(=O)c2cc(Br)ccc2NC(=O)c2ccc(CN3CCC(O)CC3)cc2)c1
c = Cc1ccc(/C=N/NC(=O)c2cscc2NC(=O)c2cccc(CN(CC(C)O)CC(C)O)c2)cc1 (stereo not drawn)
Ordering criterion: IC50; begin with the maximum. Output spec: labels arranged per the requested ranking.
a, c, b
